- procedureSummary: yeast display, Sf9 membrane polyspecificity reagent, FACS + sequencing; frameworks hold sequencing errors
measurementLabel: polyreactivity (PSR sort gate)

[[record]]
primarysequence = "QVQLVESGGGLVQAGGSLRLSCAASGRTYRYAMGWYRQAPGNERELVAAIRWSGGSTYYADSVKGRFTISRDNAKNTVYIQMNSLKPEDTAVYYCAADSYATRYYYWGQGTQVTVSS"
measuredvalue = "high polyreactivity"

[[record]]
primarysequence = "QVQLVESGGGLVQAGGSLRLSCAASGRTIWYYAMGWYRQAPGNERELVASITRSGGSTYADSVQGRFPISRDNAKNTVYLQMNSLKPQDTAVYYCAVGAVVPGLRRRTYYYWGQGTQVTVSS"
measuredvalue = "high polyreactivity"

[[record]]
primarysequence = "QVQLVESGGGLVQAGGSLRLTCAASGSIFRVNAMGWYRQAPGKERELVAAISSGGSTHYADSVKGRFTMSRDNAKNTVYLLMNSLKPEDTAVYYCAVRGERRYIYDYWGQGTQVTVSS"
measuredvalue = "high polyreactivity"

